Sourced from patent US20210388087A1

Known fold change of affinity of a selection of binders
# system_name: T1, Human CD3eg linker (human)
# T1 construct: Single-chain construct; also called recombinant human CD3
# T1 chain: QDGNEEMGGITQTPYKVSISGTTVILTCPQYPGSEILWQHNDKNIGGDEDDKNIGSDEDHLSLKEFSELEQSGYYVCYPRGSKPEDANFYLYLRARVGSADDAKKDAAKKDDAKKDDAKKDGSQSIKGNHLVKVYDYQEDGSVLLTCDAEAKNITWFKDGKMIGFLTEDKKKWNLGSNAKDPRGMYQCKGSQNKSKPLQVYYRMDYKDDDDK
# experimental_protocol: SPR; fold vs parent H183/L072
# number only, unit fold dropped from output

In the examples that follow, each entry is paired with its recorded fold change of affinity.
binder	fold change of affinity [fold]
H183/L072 VL P56A (antibody, name in Kabat numbering, V domains shown) VH: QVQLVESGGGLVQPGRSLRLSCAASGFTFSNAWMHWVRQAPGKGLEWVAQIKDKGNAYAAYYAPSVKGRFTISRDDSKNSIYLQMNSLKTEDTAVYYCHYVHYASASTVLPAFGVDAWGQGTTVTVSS VL: DIVMTQSPLSLPVTPGEPASISCQASQELVHMNRNTYLHWYQQKPGQAPRLLIYKVSNRFAGVPDRFSGSGSGTDFTLKISRVEAEDVGVYYCAQGTSVPFTFGQGTKLEIK	4.1
H183/L072 VL Q27M (antibody, name in Kabat numbering, V domains shown) VH: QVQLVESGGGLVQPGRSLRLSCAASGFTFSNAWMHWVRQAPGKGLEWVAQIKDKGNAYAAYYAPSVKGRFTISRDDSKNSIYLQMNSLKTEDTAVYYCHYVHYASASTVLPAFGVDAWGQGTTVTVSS VL: DIVMTQSPLSLPVTPGEPASISCQASMELVHMNRNTYLHWYQQKPGQAPRLLIYKVSNRFPGVPDRFSGSGSGTDFTLKISRVEAEDVGVYYCAQGTSVPFTFGQGTKLEIK	1.2

Switching to the query record.
The value of fold change of affinity measured for the binder H183/L072 VL V94L (antibody, name in Kabat numbering, V domains shown) VH: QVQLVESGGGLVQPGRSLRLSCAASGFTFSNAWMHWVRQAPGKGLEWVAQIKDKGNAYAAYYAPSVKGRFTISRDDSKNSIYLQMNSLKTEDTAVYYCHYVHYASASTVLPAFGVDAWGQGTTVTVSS VL: DIVMTQSPLSLPVTPGEPASISCQASQELVHMNRNTYLHWYQQKPGQAPRLLIYKVSNRFPGVPDRFSGSGSGTDFTLKISRVEAEDVGVYYCAQGTSLPFTFGQGTKLEIK turned out to be 0.3
